System: Sam68 (KHDRBS1)
protocolDescription: Sam68 small-molecule binders, primary screen, biochemical, small-molecule microarray, 635 nm fluorescence (AID 1125);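 note: score merges 667 nm channel intensity with signal to noise over triplicate slides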
testContext: small-molecule microarray binding, higher = more signal
reportedProperty: composite z-score

>>> result("COCCCNC(=O)[C@]1(Cc2ccccc2N=[N+]=[N-])N=C(c2ccc(OCCCO)cc2)O[C@@H]1c1ccccc1")
1.3
>>> result("C=C(CCCC)C(=O)CC[C@H](OC(=O)c1ccccc1-c1ccccc1C(=O)O)c1cccc(OCCO)c1")
0.225
>>> result("C=CCOC(=O)[C@@H]1[C@H]2C(=O)O[C@H](c3ccccc3)[C@H](c3ccccc3)N2[C@H](c2ccc(OCCOC(=O)[C@@H]3C[C@@H]4C(=O)N[C@@H](CC(C)C)C(=O)N4[C@@H]3c3ccc(O)cc3)cc2)[C@@]12C(=O)Nc1ccc(I)cc12")
1.28
>>> result("C=CCOC(=O)[C@H]1[C@@H]2C(=O)O[C@@H](c3ccccc3)[C@@H](c3ccccc3)N2[C@@H](c2ccc(OCCOC(=O)[C@H]3C[C@H]4C(=O)NCC(=O)N4[C@H]3c3cccc(OCCO)c3)cc2)[C@]12C(=O)Nc1ccc(I)cc12")
1.29
>>> result("COCCOC(=O)N1C(=O)[C@@]2(c3cc(C#CC4(O)CCCCCC4)ccc31)[C@H](C(N)=O)[C@H]1C(=O)O[C@H](c3ccccc3)[C@H](c3ccccc3)N1[C@@H]2c1ccc(OCCO)cc1")
1.3
>>> result("O=C/C=C/c1ccc(-c2ccccc2)cc1")
-0.789
>>> result("C=C(CCCC)/C(=C/C[C@@H](OC(C)=O)c1cccc(OCCO)c1)c1cc(C(=O)OC)ccc1OC")
0.71
>>> result("CCOC(=O)C[C@H]1[C@H](OC(=O)c2ccc(-c3ccccc3)cc2)[C@@H](NC(=O)C2CCCCC2)c2cc(OCCCO)ccc2N1C(=O)Cc1ccc(OC)cc1")
0.496
>>> result("CC(C)(C)OC(=O)N1[C@@H](C=C(Br)Br)COC1(C)C")
0.839
>>> result("C=C(COC)C(=O)CC[C@H](OC(C)=O)c1ccc(CO)o1")
-0.893
>>> result("COC(=O)C1(CC(C)C)C=C2C(=C(C)C(=O)C2C)CN1 (stereo not given)")
-0.0177
>>> result("COC(=O)[C@@]1(Cc2ccc(OC)cc2)[C@H]2c3cc(C(=O)N(C)C)n(Cc4c(CO)[nH]cc(C)c4=O)c3C[C@H]2CN1C(=O)c1ccccc1")
0.55
>>> result("CC(C)c1ccc(NN2C(C(O)c3ccccc3)C=CC3C(=O)N(c4ccccc4)C(=O)C32)cc1 (stereo not given)")
1.32
>>> result("COc1ccc(CCNC(=O)[C@@]2(c3ccc([N+](=O)[O-])cc3)CC(=O)N(C3CCCCC3)[C@@H]2c2ccc(CO)cc2I)cc1")
0.962
>>> result("COC(=O)c1ccc(OC)c(/C=C\\CC(OC(=O)c2ccncc2)c2ccccc2)c1 (stereo not given)")
-0.0077
>>> result("O=C1C2C=CC(C(O)C3CC=CCC3)N(Nc3ccc([N+](=O)[O-])cc3)C2C(=O)N1c1ccccc1 (stereo not given)")
1.33
>>> result("CCCCC(=C=CC[C@@H](O)c1ccc(OCCO)cc1)CCO")
0.118
>>> result("CC1C2C(CCCO)=CC(C3C(=O)N(C(N)=O)C(=O)C23)N1Cc1cccc(OC(F)(F)F)c1 (stereo not given)")
1.33
>>> result("Cc1ccc(S[C@]2(C(=O)NCC(C)C)CC(=O)N(C(C)C)[C@@H]2c2ccc(CO)cc2I)cc1")
-0.236
>>> result("COc1ccc(CCNC(=O)[C@@H]2c3ccccc3C(=O)N(C(C)C)[C@H]2c2ccc(CO)cc2)cc1")
-0.139
>>> result("C[C@]1(C(=O)O)c2ccccc2C(=O)N(Cc2cc(C(F)(F)F)cc(C(F)(F)F)c2)[C@H]1c1ccc(CO)cc1")
0.666
>>> result("CC(C)C[C@@H]1NC(=O)[C@H]2C[C@@H](C(=O)O)[C@@H](c3cccc(OCCO)c3)N2C1=O")
0.531
>>> result("C=C(/C=C\\CNS(=O)(=O)c1ccc(C)cc1)[C@H](O)[C@H]1CCCN1S(=O)(=O)c1ccccc1[N+](=O)[O-]")
0.127
>>> result("O=C1NC(=O)C2C1C=CC(C(O)C(O)CO)N2Nc1ccccn1 (stereo not given)")
0.523
>>> result("COC(=O)[C@@]1(Cc2ccc(F)cc2)[C@H]2c3cc(C(=O)N4CCCC4)n(Cc4ccc(C(F)(F)F)nc4)c3C[C@H]2CN1C(=O)c1ccccc1")
1.23
>>> result("CCCCCN1CC=CC23O[C@@H]4/C=C\\CCCOC(=O)C4[C@H]2C(=O)N(CCO)[C@@H]3C1=O (stereo not given in full)")
0.428
>>> result("C=CCOC(=O)[C@H]1[C@@H]2C(=O)O[C@@H](c3ccccc3)[C@@H](c3ccccc3)N2[C@@H](c2ccc(OCCOC(=O)[C@H]3C[C@H]4C(=O)NCC(=O)N4[C@H]3c3ccc(O)cc3)cc2)[C@]12C(=O)Nc1ccccc12")
1.29
>>> result("COCCCNC(=O)[C@@]1(CCC(=O)OC(C)(C)C)N=C(c2ccc(OCCCO)cc2)O[C@H]1c1ccccc1")
0.748
>>> result("C=C[C@H](C)[C@@H](OC(=O)Nc1ccc(SC)cc1)c1ccc(OCCO)cc1")
0.157
>>> result("CN(C)CCCCCCNC(=O)[C@@H]1C[C@@H]2C(=O)N[C@@H](CCCC[N+](C)(C)C)C(=O)N2[C@@H]1c1cccc(OCCO)c1")
-0.311
